Test system: UACC-62 melanoma
Assay Protocol: NCI-60 one-dose screen, 48 h
Stated Conditions: 10 µM unless noted
This is part of a sample that, as a whole, favours compounds with a hit. Of some 83,000 tested, about 20% had one in any assay. Calls of active or inactive are those of the source. How the source made its calls: active means growth percent below 10; inactive means the rest.
Please reply with one of these outcomes: Yes (active), No (inactive)

// below: answered compounds
>>> discrete_label("C=CCn1c(SCC(=O)Nc2ccc(C(=O)/C=C/c3cc(OC)c(OC)c(OC)c3)cc2)nnc1-c1cc(-c2ccc(S(C)(=O)=O)cc2)nc2ccccc12")
"No"
>>> discrete_label("COc1ccc(Cl)cc1NC(=O)c1c(NC(=O)C(F)(F)C(F)(F)F)sc2c1CCCCC2")
"Yes"
>>> discrete_label("COC(=O)C1NC(=S)N(c2ccc(Cl)cc2)C1/C=C/c1ccccc1 (stereo not given)")
"No"
>>> discrete_label("O=c1[nH]c(=O)[nH]c(=S)[nH]1")
"No"

Per the assay record, what outcome was assigned to CCN(CC)CCCC(C)Nc1c2c(nc3ccc(OC)cc13)CCCC2 (stereo not given) ?
No

Per the assay record, what outcome was assigned to O=S(=O)(c1ccccc1)N1CCCc2ccccc21 ?
No

Per the assay record, what outcome was assigned to CCCCCCCC(=O)Nc1nc2[nH]c(CN3CCN(Cc4cccc(I)c4)CC3)c(CN3CCN(Cc4cccc(I)c4)CC3)c2c(=O)[nH]1 ?
Yes

Per the assay record, what outcome was assigned to Clc1ccc(C2CC(c3cccc(Nc4ccncc4)c3)=NN2c2ccccc2)cc1 (stereo not given) ?
No

Per the assay record, what outcome was assigned to Cc1ccc(-c2c(Br)c(OC(=O)CO[C@@H]3C[C@H](C)CC[C@H]3C(C)C)c(-c3ccc(C)cc3C)c(Br)c2OC(=O)CO[C@H]2C[C@@H](C)CC[C@@H]2C(C)C)c(C)c1 ?
No

Per the assay record, what outcome was assigned to Clc1ccc(N2N=C(c3cccc(Nc4ccncc4)c3)CC2c2ccc(Br)cc2)cc1 (stereo not given) ?
No

Per the assay record, what outcome was assigned to Cc1ccc(O)c(C(=O)O)c1 ?
No

Per the assay record, what outcome was assigned to COc1cc(-c2nc3sccn3c2-c2ccnc(NCCNS(=O)(=O)c3ccc(F)cc3)n2)ccc1F ?
Yes

Per the assay record, what outcome was assigned to S=c1[nH]cccc1-c1nnc2n1Nc1nc3ccccc3cc1CS2 ?
No

Per the assay record, what outcome was assigned to O=C(OC(OC(=O)c1cc(Cl)cc(Cl)c1)c1cccc2ccccc12)c1ccccc1 (stereo not given) ?
No

Per the assay record, what outcome was assigned to CC(C)(C)OC(=O)N1CCN(c2ccc(N)cc2)C(=O)C1 ?
No

Per the assay record, what outcome was assigned to CS(=O)(=O)c1ccc(-c2cc3c(oc2=O)-c2ccccc2OC3O)cc1 (stereo not given) ?
No

Per the assay record, what outcome was assigned to COc1ccccc1Nc1cc(O)c2c(=O)cc(-c3ccccc3)oc2c1 ?
No

Per the assay record, what outcome was assigned to COc1ccc(Cn2nc(-c3ccccc3)c3c2CCc2cnoc2-3)cc1 ?
No

Per the assay record, what outcome was assigned to CC(=O)OCC(=O)[C@@]1(O)CC[C@H]2[C@@H]3CC(=C(Br)Br)C4=CC(=O)CC[C@]4(C)[C@H]3C(=O)C[C@@]21C ?
No

Per the assay record, what outcome was assigned to Cn1c(COC(=O)NCCn2ccnc2)nc2c(N3CCOCC3)nc(-c3ccccc3)nc21 ?
Yes

Per the assay record, what outcome was assigned to COc1cc2nc(-c3ccc(C(F)(F)F)cc3)cc(OCCN3CCC(O)CC3)c2cc1OC ?
No

Per the assay record, what outcome was assigned to CCOC(=O)Oc1c(OC)cc(C(=O)O[C@@H]2C[C@@H]3CN4CCc5c([nH]c6cc(OC)ccc56)[C@H]4C[C@@H]3[C@H](C(=O)OC)[C@H]2OC)cc1OC ?
No

Per the assay record, what outcome was assigned to COC(=O)N[C@H]1CCc2cc(OC)c(OC)c(OC)c2-c2ccc(SC)c(=O)cc21 ?
No

Per the assay record, what outcome was assigned to FC(F)(F)c1cccc(Nc2ccccc2)c1 ?
No

Per the assay record, what outcome was assigned to Nc1nc(SN=Nc2ccc(S(N)(=O)=O)cc2)c2[nH]cnc2n1 ?
Yes

Per the assay record, what outcome was assigned to O=C(O)C(/C=C/c1ccco1)=N\Nc1nc(-c2ccc(Cl)cc2)cs1 ?
No

Per the assay record, what outcome was assigned to COc1ccc2nc(N=Nc3c(O)ccc4ccccc34)sc2c1 ?
Yes

Per the assay record, what outcome was assigned to COc1cccc2cc(-c3cc4ccccc4[nH]3)/c(=N/C(=S)Nc3ccc(C)cc3)oc12 ?
No

Per the assay record, what outcome was assigned to O=C1c2ccccc2-c2c1c1c(NCCCO)nc3ccccc3c1n2Cc1ccccc1 ?
No

Per the assay record, what outcome was assigned to O=C1Nc2c(ccc(Cl)c2Cl)/C1=C/c1ccc(O)cc1 ?
No

Per the assay record, what outcome was assigned to O=C(OCc1nc2nc(Cl)nc(N3CCOCC3)c2[nH]1)n1ccnc1 ?
Yes
